- Tested on: OVCAR-8 ovarian
- Assay: NCI tumour cell line growth inhibition, 48 h; in the data active = GI50 below about 0.43 µM; inactive = the rest
Entry note: the call must match one of active, inactive

Here are 5 compounds together with their reported answers.
>  <Compound>
CCC(c1cccc(O)c1)C(CC)c1cccc(O)c1 (stereo unspecified)

>  <Class assignment>
inactive

$$$$
>  <Compound>
COC(=O)C1=C(C(=O)OC)SC(=C(Cl)C(=S)Sc2ccccc2N)S1

>  <Class assignment>
inactive

$$$$
>  <Compound>
Cc1c2ccc(N(C)c3ccnc(Nc4cccc(S(N)(=O)=O)c4)n3)cc2nn1C

>  <Class assignment>
inactive

$$$$
>  <Compound>
COC(=O)CCC1=C(C)/C(=C/c2[nH]c(-c3ccc[nH]3)cc2OC)N=C1C

>  <Class assignment>
active

$$$$
>  <Compound>
COc1ccc(C2CC(n3nnnc3-c3ccccc3)=NN2)cc1 (stereo unspecified)

>  <Class assignment>
inactive

$$$$

API: the following record is the query input.
**Query** What did the test return for COC(=O)CCCCCN=Cc1c(O)c(O)c(C(C)C)c2cc(C)c(-c3c(C)cc4c(C(C)C)c(O)c(O)c(C=NCCCCCC(=O)OC)c4c3O)c(O)c12 ?
**Result** inactive
